Catalogue of Carbon in VFA readings, one per entry.
system: rumen fluid; assay: in vitro ruminal fermentation, 22 muramidases, 12 h (Example 4); parameters: species or system cow; conditions: summed carbon in VFA after 12 h; muramidase 0.20 mg/40 ml
Provide the reading as a plain figure in mmol/L.

[in] Report Carbon in VFA for U: mature muramidase polypeptide from Zopfiella Sp., novel MUR polypeptide; U in Example 4 (protein, Zopfiella sp) YPIKGDTVNCRSGPGTSFAVKKTYAKGKDIKITCQTTGTSVNGNNIWDKTSDGCYVADYYVKTGKDGFVTDKCDASSVPKPPATKIPGPVTNDYPYKSSCGGVDPWNYYKCQCTSFVAWRVNKRLGKKFHNRYKGHAWGNANQWDEAAKQSGVKVNSTPKPGCIAQTNAGSYGHVAWVTAVGKDTVTIEEYNWNKKLGYGTRTVAKSKFNYIHLEP please.
[out] 251

Continuing:
[in] Report Carbon in VFA for Z: mature muramidase polypeptide from Penicillium wellingtonense, novel MUR polypeptide; Z in Example 4 (protein, Penicillium wellingtonense) YPITGDVVNCRSGPGTTYDVVKSYKLNADVSITCQAPGTDVKGDSVWDKTADGCYVADYYVKTGSSSYVTTKCGGDDDGGDNDGGSSGNLPGLTSTQSKHAKDIIAEAKSEDLGRQGCLAGIATAIVESNILIYANSGVPESLKYPHDAVGSDHDSVGIFQQRAMFYKDIAADMDAGKSAGQFFGKMKAVSGWKSMDVGTLCQKVQGSAYPSRYAEQVSKAEKICKAGGL please.
[out] 247

[in] Report Carbon in VFA for Y: mature muramidase polypeptide from Ovatospora brasiliensis, novel MUR polypeptide; Y in Example 4 (protein, listed as Ovatospora brasiliensis) YPVKADSLNCRSGPGTSYKVVKTYKKGADIKISCQTEGPSVNGDNLWIKTQDGCYVADYYVKTGTNGYVAKKCSSGGSTGGGSGGGKGNLPGLNAKQSSHARAIVAQAKKDGVGLHGCEAGIATALVESGIKVYANKKVPASLKYPHDAVGSDHDSIGIFQQRAVYYPNIAADMDPARSAHQFFAKMKGVSGWKTMAVGKLCQKVQVSAYPDRYAKRVSEATKICKAAGI please.
[out] 258
